tested on: giant foxtail (Setaria faberii); assay: Test A postemergence; assay type: in vivo; conditions: 500 g ai/ha, postemergence; visual injury, 0 to 100 scale (0 no effect, 100 complete control), approx. 10 d
measurement-label: Plant response rating, Foxtail, Giant
Simply state the number, no unit and no words.

| compound | Plant response rating, Foxtail, Giant |
| --- | --- |
| O=C1NCC(c2cccc(O)c2)C1C(=O)Nc1ccccc1C(F)(F)F (racemic) [Compound 716] | 0 |
| Cc1ccc(C2CNC(=O)C2C(=O)Nc2ccc(F)cc2F)cc1C(F)(F)F (racemic) [Compound 680] | 30 |
| CN1CC(c2ccc(C(C)(F)F)cc2)C(C(=O)Nc2ccc(F)cc2F)C1=O (centres unmarked) [Compound 693] | 80 |

Requested field: Plant response rating, Foxtail, Giant. Item: O=C1NCC(c2ccc(I)cc2)C1C(=O)Nc1ccccc1Cl (racemic) [Compound 704]
90

Requested field: Plant response rating, Foxtail, Giant. Item: O=C1NCC(c2cccc(OC(F)(F)C(F)F)c2)C1C(=O)Nc1ccc(F)cc1F (racemic) [Compound 696]
80

Requested field: Plant response rating, Foxtail, Giant. Item: O=C1NCC(c2ccc(I)cc2)C1C(=O)Nc1cccc(F)c1 (racemic) [Compound 703]
90

Requested field: Plant response rating, Foxtail, Giant. Item: CC(C)Oc1cccc(C2CN(C)C(=O)C2C(=O)Nc2ccccc2S(C)(=O)=O)c1 (centres unmarked) [Compound 653]
90

Requested field: Plant response rating, Foxtail, Giant. Item: O=C1NCC(c2ccc(I)cc2)C1C(=O)Nc1ccccc1F (racemic) [Compound 702]
80

* * *

# Lookup of reported pest or weed control at 125 g/ha keyed by entry
system: ryegrass, Italian (Italian ryegrass, Lolium multiflorum); assay: Test A preemergence; format: in vivo; settings: Lolium multiflorum, pre-emergence, 240 h, 125 g ai/ha, preemergence; visual injury rating, 0 to 100 scale where 0 is no effect and 100 is complete control; approximately 10 d; read-out: Ryegrass, Italian plant response rating
Just the number please, in %, no unit attached.

| molecule | readout-value |
| --- | --- |
| CN1C[C@H](c2ccc(C#N)cc2)[C@@H](C(=O)Nc2ccc(F)c(F)c2F)C1=O [Compound 1229] | 0 |

Requested field: pest or weed control at 125 g/ha. Item: CN1C[C@H](c2cccc(C(F)(F)F)c2)[C@@H](C(=O)Nc2ccc(F)cc2C(F)(F)F)C1=O [Compound 1250]
50

Requested field: pest or weed control at 125 g/ha. Item: CN1CC[C@H](c2ccc(C(F)(F)F)cc2)[C@@H](C(=O)Nc2ccccc2C(F)(F)F)C1=O [Compound 1224]
0

Requested field: pest or weed control at 125 g/ha. Item: O=C1NC[C@H](c2ccc(C(F)(F)F)cc2)C1C(=O)Nc1c(F)cccc1CO (stereo partly drawn) [Compound 1243]
0

Requested field: pest or weed control at 125 g/ha. Item: CN1C[C@H](c2csc3c2CCOC3)[C@@H](C(=O)Nc2cccc(F)c2F)C1=O [Compound 1268]
20

Requested field: pest or weed control at 125 g/ha. Item: Cc1nc([C@H]2CN(C)C(=O)[C@@H]2C(=O)Nc2ccccc2F)cs1 [Compound 1280]
0

* * *

# Lookup of reported pest or weed control at 15.625 g/ha keyed by entry
System: giant foxtail (Setaria faberi)
Experiment: Test G Post-Emergence Protocol
Format: in vivo
Conditions: Setaria faberi, post-emergence, 312 h, 15.625 g ai/ha, evaluated after 13 days (100=total damage to plant; 0=no damage to plant), read-out: Foxtail, Giant damage rating
Source text: Seeds of corn (Zea mays), giant foxtail (Setaria faberi), barnyardgrass (Echinochloa crus-galli), ivy-leaved morning glory (Ipomoea hederacea), redroot pigweed (Amaranthus retroflexus) and velvetleaf (Abutilon theophrasti) were sown in standard soil in pots. […]
Just the number please, in %, no unit attached.

| molecule | system-tested | pest or weed control at 15.625 g/ha / % |
| --- | --- | --- |
| Cc1nc(NC(=O)[C@@H]2C(=O)N(C)C[C@H]2c2ccc(C(F)(F)F)cc2)ccc1F (racemic) | giant foxtail (Setaria faberi) | 20 |
| CN1C[C@@H](c2ccc(C(F)(F)F)cc2)[C@H](C(=O)Nc2cnnc(Cl)c2Cl)C1=O (racemic) | giant foxtail (Setaria faberi) | 0 |
| COc1c(Cl)cccc1NC(=O)[C@H]1C(=O)N(C)C[C@@H]1c1ccc(C(F)(F)F)cc1 (racemic) | giant foxtail (Setaria faberi) | 10 |

Note: attention shifts to another entry.
Request: pest or weed control at 15.625 g/ha, test system giant foxtail (Setaria faberi), entry Cc1nccc(NC(=O)[C@@H]2C(=O)N(C)C[C@H]2c2ccc(C(F)(F)F)cc2)c1C (racemic)
0
